- Test system: SR leukemia
- procedure_text: NCI tumour cell line growth inhibition, 48 h; in the data active means GI50 below about 0.43 µM; inactive means the rest
Classes to choose from: active, inactive

Field: example entries. Status: answers known.
compound="CC(NCCC(c1ccccc1)c1ccccc1)c1ccccc1 (stereo not given)" cat=inactive
compound=C[n+]1c(/C=C/c2c(O)ccc3ccccc23)ccc2ccccc21 cat=inactive

Next, consider the following compound.
Assay result, entry Nc1ncn([C@@H]2O[C@H](CO)[C@@H](O)[C@H]2O)c(=O)n1 — outcome? inactive

----------
- Tested on: KM12 colon
- procedure_text: NCI tumour cell line growth inhibition, 48 h
The following compounds are shown together with reported TGI values.

compound=CSc1nc(SC)c2c(C#N)[nH]nc2n1 reported_measurement="> 100 µM"
compound=Cc1cc2c(=O)c3ccccc3[nH]c2c(C(N)=O)c1C reported_measurement="> 100 µM"
compound=Nc1ccc(N=Nc2c(S(=O)(=O)O)cc3ccccc3c2S(=O)(=O)O)cc1 reported_measurement="> 100 µM"
compound=O=C(/C(=C/c1ccc(Cl)cc1)c1ccccc1)c1ccccc1 reported_measurement="30.5 µM"
compound=CC1(C)[C@@H]2CC[C@@]1(C)CN(CCC[N+](C)(C)C)C2 reported_measurement="> 100 µM"
compound=CCOC(=O)c1nc2c(OC)nn(O)cc-2c1[N+](=O)[O-] reported_measurement="28.2 µM"
compound=NS(=O)(=O)c1ccc(N=Nc2c(O)c(C(=O)O)cc3ccccc23)cc1 reported_measurement="> 100 µM"
compound=CN1CCC(=O)/C(=C/c2ccccc2)C1 reported_measurement="5.28 µM"

Next up:
Identify measured TGI corresponding to COc1cc2c(cc1OC)C1C3CCCCC3CCN1CC2 (configuration not stated) > 100 µM
